These data points were gathered from paper PMC6128917.

- tgt: PsuACR1 (PsACR1)
- Construct: 291 residues plus C-terminal His8 kept (299 residues in total)
- assayText: UV-visible absorption titration, λmax red-shift fitted with Hill equation (n = […] fixed)
- testConditions: 10 mM MOPS pH 7.0, 25 °C; ionic strength kept at 1,000 mM with Na2SO4; initial (unphotolysed) state
pKd: −log10 of the molar value.

- cpdSmiles: "Cl"
  pKd: 2.26
